Assay system SNB-19 CNS; read-out recorded as GI50.

Worked examples follow.
QUERY: Field: GI50 (SNB-19 CNS). Entry: "Cc1cc(OCc2nnc3n2N=C(c2ccc(Cl)cc2Cl)CS3)ccc1Cl"
RESULT: 97200 nM

QUERY: API: value(readout= GI50, system= SNB-19 CNS, query= "COc1ccc(OC)c(Nc2nc(-c3c(C)nc4sccn34)cs2)c1" )
RESULT: 41400 nM

QUERY: Record "CCN(CC)CCSCCCNc1c2ccc(Cl)cc2nc2ccc(OC)cc12" : what is its GI50 with SNB-19 CNS?
RESULT: 1250 nM

QUERY: Write down the reported GI50 of "COc1ccc2nc(NC(=O)c3cccnc3Nc3cc(OC)c(OC)c(OC)c3)sc2c1" , test system: SNB-19 CNS.
RESULT: 15000 nM

QUERY: Provide the documented GI50 with SNB-19 CNS as the system for "COc1ccc(Nc2c3ccccc3nc3[nH]c4ccccc4c23)cc1"
RESULT: 25500 nM

New cases:
QUERY: Provide value of GI50 for this record tested with SNB-19 CNS: "COC(=O)[C@@H](C)C[C@H](Cc1ccccc1)NC(=O)c1csc([C@@H](C[C@H](C(C)C)N(C)C(=O)[C@H](C)NC(=O)[C@H]2CCCCN2C)OC(C)=O)n1"
RESULT: 901 nM

QUERY: Form entry - test system: SNB-19 CNS; read-out: GI50; molecule: "C=C1c2c(Cl)ccc(O)c2C(O)=C2C(=O)[C@]3(O)C(O)=C(C(N)=O)C(=O)[C@@H](N(C)C)[C@@H]3[C@@H](O)[C@H]12"
RESULT: 1440 nM

QUERY: GET /values?readout=GI50&system=SNB-19 CNS&item= COc1ccc(C2=CC(c3ccc(OC)c(OC)c3)c3c(c4ccccc4oc3=O)O2)cc1OC (centres undefined)
RESULT: 1990 nM

QUERY: Query for SNB-19 CNS: what GI50 does the record show for "ClCc1ccc(Cn2cnc3c(Cl)nc(Cl)nc32)cc1" ?
RESULT: 2500 nM

###

test system: MOLT-4 leukemia; experiment: NCI tumour cell line growth inhibition, 48 h
measuredParameter: TGI (µM)
Report only the number, with the unit µM understood.

Please review the entries below; each comes with its answer.
QUERY: I am curious: what TGI value has been reported for "CC(=O)c1cc(C)n2c1CS[C@@H]2c1ccccc1" ?
RESULT: 96.5

QUERY: Consider the molecule shown here: "ClCc1ccc(Cn2cnc3c(Cl)nc(Cl)nc32)cc1" What is its recorded TGI?
RESULT: 27.4

Others:
QUERY: Param item = "Cn1c2ccccc2c(=O)c2[nH]c3ccccc3c21" ; retrieve measured TGI.
RESULT: 75.9

###

test system: COLO 205 colon; assay: NCI tumour cell line growth inhibition, 48 h
# TGI >= 30 µM gives yes, anything below gives no

Worked set:
QUERY: Confirm if TGI reported for the molecule "Cc1cccc2nc3cccc(C(=O)NCCN(C)C)c3nc12" is 30 µM or above.
RESULT: no

QUERY: Has CC1=NN(C(=O)CC(=O)Nc2cccc(Cl)c2)C(=O)C1N=Nc1ccc(C(=O)O)cc1 (configuration not stated) a recorded TGI greater than or equal to 30 µM?
RESULT: yes

QUERY: Can "CC1=C(/C=C/C(C)=C/C=C/C(C)=C/CO)C(C)(C)CCC1" be said to have TGI at or above 30 µM?
RESULT: yes

Continuing:
QUERY: Assess whether reported TGI for "CCN(CC)CCSCCCNc1c2ccc(Cl)cc2nc2ccc(OC)cc12" sits at 30 µM or higher.
RESULT: no

QUERY: In plain terms: is recorded TGI at least 30 µM for CCOC(=O)/C(C#N)=C/c1ccc2c(c1)CC1(C2)Cc2cc(CC)c(C(C)O)cc2C1 (configuration not stated) ?
RESULT: yes

QUERY: Is the recorded value of TGI equal to or greater than 30 µM for this molecule? COC1OC2COC(c3ccccc3)OC2C(O)C1Br (configuration not stated)
RESULT: yes

###

Quick reference: TGI of the listed items.
test system: K-562 leukemia; test: NCI tumour cell line growth inhibition, 48 h

Check out these entries, answers already filled in.
QUERY: Missing value: TGI, K-562 leukemia, entry "COc1ccc(CCc2nccn2C)cc1OC" . Fill in?
RESULT: > 100 µM

QUERY: Lab request: please report TGI under test system K-562 leukemia for "CCOC(=O)c1c(N2CCCC2)[nH]c(=O)c(C(c2cccs2)c2c(O)c(C(=O)OCC)c(N3CCCC3)[nH]c2=O)c1O"
RESULT: > 100 µM

QUERY: Form field: TGI recorded for "c1ccc2cc3c(cc2c1)nc1ccccn13" with K-562 leukemia (enter value)
RESULT: > 100 µM

QUERY: Return TGI measured with K-562 leukemia given this molecule: "CCc1n[nH]c(=O)n1CCO"
RESULT: > 100 µM

QUERY: Under K-562 leukemia: TGI value of "O=C1c2nc3n(c2C(=O)c2c1nc1n2CCC1)CCC3" ?
RESULT: > 57.8 µM

Others:
QUERY: Look up TGI with K-562 leukemia for this molecule: "COc1ccc(N=[N+]([O-])c2ccc(OC)cc2)cc1"
RESULT: > 100 µM

QUERY: Give the reported TGI for "CCCNc1nc2ccccc2c2c1S(=O)(=O)c1ccc(Cl)cc1C2=O" (system: K-562 leukemia).
RESULT: > 50 µM

QUERY: Value wanted: TGI (K-562 leukemia) of entry "O=C(O)CCSC(=O)Nc1ccc(N=Nc2ccccc2)cc1"
RESULT: > 100 µM

###

test system: OVCAR-4 ovarian
measuredParameter: GI50

Take a look at these entries with their results.
QUERY: # query: GI50 | item "O=C1c2nc3n(c2C(=O)c2c1nc1n2CCC1)CCC3" | system: OVCAR-4 ovarian
RESULT: 5.45 µM

QUERY: Checklist item: GI50 tested on OVCAR-4 ovarian, entry "CN(C)CCN1C(=O)c2cccc3cccc(c23)C1=O" , value?
RESULT: > 25 µM

QUERY: Recorded GI50 for "CC(C)COC(=O)c1ccc2[nH]c(O)c(C=Nc3ccc(S(N)(=O)=O)cc3)c2c1" with OVCAR-4 ovarian, please?
RESULT: 2.39 µM

QUERY: API: value(readout= GI50, system= OVCAR-4 ovarian, query= "COc1ccc2nc(NC(=O)c3cccnc3Nc3cc(OC)c(OC)c(OC)c3)sc2c1" )
RESULT: 15 µM

Then there is this molecule:
QUERY: Please state recorded GI50 (tested on OVCAR-4 ovarian) of "CC(C)CCN[C@@H]1CCc2cc(O)c(N3CC(=O)NS3(=O)=O)c(F)c2C1"
RESULT: > 100 µM

###

Each entry below carries its measured GI50, system: SF-268 CNS.

Examples with their reported GI50 follow.
QUERY: # query: GI50 | item "C=C1c2c(Cl)ccc(O)c2C(O)=C2C(=O)[C@]3(O)C(O)=C(C(N)=O)C(=O)[C@@H](N(C)C)[C@@H]3[C@@H](O)[C@H]12" | system: SF-268 CNS
RESULT: 1410 nM

QUERY: Entry "O=C1NCCS(=O)(=O)/C1=C\C=C\c1cccc(C(F)(F)F)c1" , system SF-268 CNS: what GI50 was measured?
RESULT: 3280 nM

Here is the next item to consider.
QUERY: Any idea what GI50 came out for "COc1cc(Cl)cc(-c2nn(-c3cccc(NC(=O)Nc4ccc(Cl)c(C(F)(F)F)c4)c3)cc2-c2ccncc2)c1" on SF-268 CNS?
RESULT: 2660 nM

###

tested on: UO-31 renal; assay: NCI tumour cell line growth inhibition, 48 h
measuredParameter: TGI

QUERY: Hello, I am looking for reported TGI with UO-31 renal for "CN(C)Cc1cc(N=Nc2ccc(Cl)cc2)ccc1OC(=O)c1ccccc1" . Could you help?
RESULT: 25.2 µM

QUERY: Notebook: pull reported TGI for UO-31 renal, entry COC(=O)C1=C(C)N2CCOC2CC1c1ccccc1 (configuration not stated)
RESULT: > 100 µM

QUERY: // lookup TGI | system=UO-31 renal | key= "COc1ccc(OC)c(Nc2nc(-c3c(C)nc4sccn34)cs2)c1"
RESULT: > 100 µM

QUERY: Lookup: TGI / UO-31 renal / C=C(C)C12CC3CC/C(=N/O)C(C1)C3(N1CCOCC1)C/C2=N/O (configuration not stated)
RESULT: > 100 µM

QUERY: Please state recorded TGI (tested on UO-31 renal) of "CC1(C)OC(=O)C=C([O-])O1.CC1(C)OC(=O)C=C([O-])O1.CC[O-].CC[O-].[Ti+4]"
RESULT: > 100 µM

QUERY: Item: "C/C(=N\NC(=S)NCc1ccccc1)c1nc2ncccc2[nH]1" Test system: UO-31 renal Read-out: TGI Value: ?
RESULT: 11 µM
